The reported numbers originate from ChEMBL document CHEMBL2016496.

EXPERIMENTAL TARGET: UniProt Q9Y233
Sequence (Q9Y233 whole entry): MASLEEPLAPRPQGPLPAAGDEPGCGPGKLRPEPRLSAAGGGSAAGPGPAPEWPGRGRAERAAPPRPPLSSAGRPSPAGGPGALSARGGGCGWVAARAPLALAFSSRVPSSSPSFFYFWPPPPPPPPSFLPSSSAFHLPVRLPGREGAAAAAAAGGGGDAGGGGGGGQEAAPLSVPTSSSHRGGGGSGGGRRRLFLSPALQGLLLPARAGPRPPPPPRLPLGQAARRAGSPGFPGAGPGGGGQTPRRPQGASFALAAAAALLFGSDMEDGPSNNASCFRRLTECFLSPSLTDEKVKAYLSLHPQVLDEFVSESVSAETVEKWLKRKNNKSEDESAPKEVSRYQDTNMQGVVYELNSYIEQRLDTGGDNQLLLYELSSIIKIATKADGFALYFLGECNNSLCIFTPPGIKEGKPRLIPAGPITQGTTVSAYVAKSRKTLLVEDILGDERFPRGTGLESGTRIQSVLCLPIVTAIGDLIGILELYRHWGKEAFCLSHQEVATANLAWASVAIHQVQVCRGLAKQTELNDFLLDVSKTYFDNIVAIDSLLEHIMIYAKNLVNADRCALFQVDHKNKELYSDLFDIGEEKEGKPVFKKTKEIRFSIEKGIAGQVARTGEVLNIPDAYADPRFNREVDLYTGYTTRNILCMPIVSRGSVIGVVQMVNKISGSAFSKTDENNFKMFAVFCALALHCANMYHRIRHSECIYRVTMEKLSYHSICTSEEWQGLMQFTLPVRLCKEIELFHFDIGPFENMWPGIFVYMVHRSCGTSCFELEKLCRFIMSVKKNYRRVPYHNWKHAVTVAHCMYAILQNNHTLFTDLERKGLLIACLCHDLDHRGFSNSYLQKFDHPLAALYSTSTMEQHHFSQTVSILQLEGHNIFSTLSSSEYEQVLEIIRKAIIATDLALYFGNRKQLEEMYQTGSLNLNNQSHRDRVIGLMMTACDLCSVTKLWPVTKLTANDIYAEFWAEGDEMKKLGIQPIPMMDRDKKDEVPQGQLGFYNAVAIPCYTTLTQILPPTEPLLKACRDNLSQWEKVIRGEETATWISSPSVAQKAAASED
PROCEDURE SUMMARY: Inhibition of human recombinant PDE10A assessed as inhibition of [3H]cAMP hydrolysis by scintillation proximity assay
Note that class boundaries on Ki are lo (below 0.03 µM), med (0.03 µM to below 0.2 µM), hi (0.2 µM or more)

Worked examples, 2 molecules total:
COc1cc2c(cc1OC)-c1c(-c3cnc(CN4CCOCC4)s3)ncn1CC2; lo
COc1cc2c(cc1OC)-c1c(-c3cnc(CN4CCCOCC4)s3)ncn1CC2; lo

Please classify: "COc1cc2c(cc1OC)-c1c(-c3cocn3)ncn1CC2"
hi

Band for "COc1cc2c(cc1OC)-c1c(-c3cnc(C(=O)NCc4ccccc4)s3)ncn1CC2" ?
med

Class? Entry: "COc1cc2c(cc1OC)-c1c(-c3cscn3)ncn1CC2"
hi

Sort into band: "COc1cc2c(cc1OC)-c1c(-c3ccccc3OC)ncn1CC2"
hi

Which category does the recorded Ki put "COc1cc2c(cc1OC)-c1c(-c3cccnc3)nc(C)n1CC2" in?
lo

Lab note: sort "COc1cc2c(cc1OC)-c1c(-c3cncs3)nc(C)n1CC2" into the matching Ki band.
lo

Please let me know in which category the item "COc1cc2c(cc1OC)-c1c(-c3cncnc3)ncn1CC2" belongs.
med

Quick check: band for "COc1cc2c(cc1OC)-c1c(-c3ccccn3)ncn1CC2"
hi

----------
EXPERIMENTAL TARGET: hERG (KCNH2) (Homo sapiens)
Sequence (Q12809 whole entry): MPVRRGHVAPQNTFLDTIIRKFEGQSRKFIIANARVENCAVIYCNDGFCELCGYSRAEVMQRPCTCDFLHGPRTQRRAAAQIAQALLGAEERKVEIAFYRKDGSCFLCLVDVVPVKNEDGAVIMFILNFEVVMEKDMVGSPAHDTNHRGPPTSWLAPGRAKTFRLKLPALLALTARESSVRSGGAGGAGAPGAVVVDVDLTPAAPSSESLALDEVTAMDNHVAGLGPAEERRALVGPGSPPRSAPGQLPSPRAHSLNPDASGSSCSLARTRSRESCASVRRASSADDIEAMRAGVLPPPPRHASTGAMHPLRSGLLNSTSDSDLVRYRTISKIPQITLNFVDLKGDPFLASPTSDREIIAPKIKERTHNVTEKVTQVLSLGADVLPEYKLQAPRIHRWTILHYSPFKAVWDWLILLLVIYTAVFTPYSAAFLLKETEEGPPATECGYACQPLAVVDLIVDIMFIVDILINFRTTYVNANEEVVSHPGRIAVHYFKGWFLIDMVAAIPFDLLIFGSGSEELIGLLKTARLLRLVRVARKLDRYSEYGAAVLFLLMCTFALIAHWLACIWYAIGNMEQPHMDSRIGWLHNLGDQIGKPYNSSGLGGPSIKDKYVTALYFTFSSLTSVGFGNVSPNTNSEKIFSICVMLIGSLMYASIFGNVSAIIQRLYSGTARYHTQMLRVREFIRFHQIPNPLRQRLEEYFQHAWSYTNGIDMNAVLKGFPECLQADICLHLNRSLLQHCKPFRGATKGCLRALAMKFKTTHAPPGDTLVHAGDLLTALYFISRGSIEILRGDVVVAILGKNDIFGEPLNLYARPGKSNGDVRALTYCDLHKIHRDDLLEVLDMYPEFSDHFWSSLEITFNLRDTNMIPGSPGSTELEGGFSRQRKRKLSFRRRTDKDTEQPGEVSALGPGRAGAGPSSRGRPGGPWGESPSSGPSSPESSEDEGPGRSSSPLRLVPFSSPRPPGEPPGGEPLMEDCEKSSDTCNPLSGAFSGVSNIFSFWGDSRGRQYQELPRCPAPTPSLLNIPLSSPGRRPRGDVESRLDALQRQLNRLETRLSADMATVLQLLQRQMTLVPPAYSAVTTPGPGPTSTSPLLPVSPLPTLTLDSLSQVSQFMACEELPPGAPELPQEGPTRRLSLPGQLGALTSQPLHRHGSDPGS
PROCEDURE SUMMARY: Inhibition of human ERG at 10 uM
Decide using inhibition at 10 µM: a value greater than or equal to 20% is met, a smaller one is not met.

COc1cc2c(cc1OC)-c1c(-c3cccnc3)nc(C)n1CC2; met
COc1cc2c(cc1OC)-c1c(-c3cccnc3)ncn1CC2; met
COc1cc2c(cc1OC)-c1c(-c3cnc(C(=O)N(C)C(C)(C)C)s3)ncn1CC2; met

Check this compound for inhibition at 10 µM at or above 20%: "COc1cc2c(cc1OC)-c1c(-c3cncs3)ncn1CC2"
met

Decide: inhibition at 10 µM of "COc1cc2c(cc1OC)-c1c(-c3cncs3)nc(C)n1CC2" >= 20%?
not met

----------
EXPERIMENTAL TARGET: Phosphodiesterase 8 (Homo sapiens, UniProt O95263+O60658)
PROCEDURE SUMMARY: Inhibition of human recombinant PDE8 assessed as inhibition of [3H]cAMP hydrolysis by scintillation proximity assay
Assay type: protein assay
Measured Ki of individual entries

Worked cases, answers included:
COc1cc2c(cc1OC)-c1c(-c3cncs3)nc(C)n1CC2; > 7.1 µM
COc1cc2c(cc1OC)-c1c(-c3cccnc3)ncn1CC2; > 4.274 µM
COc1cc2c(cc1OC)-c1c(-c3cccnc3)nc(C)n1CC2; > 7.95 µM
COc1cc2c(cc1OC)-c1c(-c3cnc(C(=O)N(C)C(C)(C)C)s3)ncn1CC2; > 2 µM

--- query ---
Can you share its Ki? I mean this molecule: "COc1cc2c(cc1OC)-c1c(-c3cncs3)ncn1CC2"
> 2 µM

----------
// values below are reported Ki
EXPERIMENTAL TARGET: Phosphodiesterase 4 (Homo sapiens, UniProt P27815+Q08499+Q07343+Q08493)
PROCEDURE SUMMARY: Inhibition of human recombinant PDE4 assessed as inhibition of [3H]cAMP hydrolysis by scintillation proximity assay
Assay type: protein assay

Example entries begin here.
COc1cc2c(cc1OC)-c1c(-c3cnc(C(=O)N(C)C(C)(C)C)s3)ncn1CC2; > 2 µM
COc1cc2c(cc1OC)-c1c(-c3cncs3)nc(C)n1CC2; > 7.1 µM
COc1cc2c(cc1OC)-c1c(-c3cccnc3)nc(C)n1CC2; > 7.95 µM
COc1cc2c(cc1OC)-c1c(-c3cccnc3)ncn1CC2; > 4.274 µM

Kindly consider the entry below.
Which Ki is listed for "COc1cc2c(cc1OC)-c1c(-c3cncs3)ncn1CC2" ?
> 2 µM
